System: A549 cells
Test: Cell viability resazurin assay, A549 cells
Assay type: cell-based, human
Settings: 2 h incubation, 2.5 µM, ± SD
Protocol: The A549 (human non-small cell lung cancer) cell line was obtained from the American Type Culture Collection (ATCC) and cultured in Dulbecco's Modified Eagle Medium (DMEM) with 10% fetal bovine serum (FBS), 2 mM L-Glutamine, 25 mM HEPES and penicillin/streptomycin solution (100 U/ml and 100 µg/ml, respectively). […] Firstly, resazurin salt powder was dissolved in sterile 1 × PBS. […] The effects of iron(II) complexes were calculated as the percentage of control fluorescence. […]
Measured Attribute: viability of A549 cells relative to control (%)
The reply should be a number in %, with the unit left off.

**Q:** In one line, give reported viability of A549 cells relative to control of the entry O=C1C=CC(=O)[N-]1.[C-]#[O+].[Fe+2].c1cc[cH-]c1.c1ccc(OP(Oc2ccccc2)Oc2ccccc2)cc1 .
**A:** 96.59

**Q:** In one line, give reported viability of A549 cells relative to control of the entry O=C1C=CC(=O)[N-]1.[C-]#[O+].[Fe+2].c1cc[cH-]c1.c1coc(P(c2ccco2)c2ccco2)c1 .
**A:** 82.33

**Q:** In one line, give reported viability of A549 cells relative to control of the entry O=C1C=CC(=O)[N-]1.[C-]#[O+].[C-]#[O+].[Fe+2].c1cc[cH-]c1 .
**A:** 78.45

**Q:** In one line, give reported viability of A549 cells relative to control of the entry CCOP(OCC)OCC.O=C1C=CC(=O)[N-]1.[C-]#[O+].[Fe+2].c1cc[cH-]c1 .
**A:** 86.36

**Q:** In one line, give reported viability of A549 cells relative to control of the entry O=C1C=CC(=O)[N-]1.[C-]#[O+].[Fe+2].c1cc[cH-]c1.c1ccc(P(c2ccccc2)c2ccccc2)cc1 .
**A:** 67.99
